# testedOn: Replicase polyprotein 1ab (Severe acute respiratory syndrome coronavirus 2, UniProt P0DTD1)
Categorize each record by its IC50 using range A (below 200 nM), range B (200 nM to below 500 nM), range C (500 nM or more)

Just checking, what class would you give C[C@H](NC(=O)/C=C/c1ccccc1)C(=O)N[C@H](C=O)C[C@@H]1CCCNC1=O here?
range C

Kindly identify the class of CC(C)C[C@H](NC(=O)[C@@H](NC(=O)c1ccc([N+](=O)[O-])cc1)C(C)C)C(=O)N[C@H](C=O)C[C@@H]1CCCNC1=O .
range B

Pick a category. Item: CC(C)C[C@H](NC(=O)[C@@H](NC(=O)C1CCCCC1)C(C)C)C(=O)N[C@H](C=O)C[C@@H]1CCCNC1=O
range C

Determine which band this compound sits in: CC(C)C[C@H](NC(=O)[C@@H](NC(=O)c1ccc[nH]1)C(C)C)C(=O)N[C@H](C=O)C[C@@H]1CCCNC1=O
range A

// return the class label for CC(C)C[C@H](NC(=O)[C@@H](NC(=O)c1ccc2cc[nH]c2c1)C(C)C)C(=O)N[C@H](C=O)C[C@@H]1CCCNC1=O
range B

Assign a category based on measured IC50 for CC(C)C[C@H](NC(=O)[C@@H](NC(=O)/C=C/c1ccccc1F)C(C)C)C(=O)N[C@H](C=O)C[C@@H]1CCCNC1=O and give only the class name.
range A

Which category fits this record: CC(C)C[C@H](NC(=O)[C@@H](NC(=O)c1ccco1)C(C)C)C(=O)N[C@H](C=O)C[C@@H]1CCCNC1=O
range B

Band for CC(C)C[C@H](NC(=O)[C@@H](NC(=O)/C=C/c1ccc(C(C)C)cc1)C(C)C)C(=O)N[C@H](C=O)C[C@@H]1CCCNC1=O ?
range B

Pick a category. Item: CC(C)C[C@H](NC(=O)[C@@H](NC(=O)c1ccccn1)C(C)C)C(=O)N[C@H](C=O)C[C@@H]1CCCNC1=O
range C

Lab log: CC(C)C[C@H](NC(=O)[C@@H](NC(=O)c1ccoc1)C(C)C)C(=O)N[C@H](C=O)C[C@@H]1CCCNC1=O — assign IC50 category
range A

Which class holds CC(C)C[C@H](NC(=O)[C@@H](NC(=O)C1CCOCC1)C(C)C)C(=O)N[C@H](C=O)C[C@@H]1CCCNC1=O ?
range B

For this compound, which bin applies? CC(C)C[C@H](NC(=O)[C@@H](NC(=O)c1ccc(C(F)(F)F)cc1)C(C)C)C(=O)N[C@H](C=O)C[C@@H]1CCCNC1=O
range C

Which band does C#CC[C@H](NC(=O)/C=C/c1ccccc1)C(=O)N[C@H](C=O)C[C@@H]1CCNC1=O fall in?
range C

Any idea which band CC(C)C[C@H](NC(=O)[C@@H](NC(=O)/C=C/c1ccc(-c2ccccc2)cc1)C(C)C)C(=O)N[C@H](C=O)C[C@@H]1CCCNC1=O is in?
range B

For this compound, which bin applies? CC(C)C[C@H](NC(=O)[C@@H](NC(=O)/C=C/c1ccccc1)C(C)C)C(=O)N[C@H](C=O)C[C@@H]1CCCNC1=O
range B

Please indicate the class for CC(C)[C@H](NC(=O)/C=C/c1ccccc1)C(=O)N[C@H](C=O)C[C@@H]1CCCNC1=O based on its IC50.
range C

Note: place this compound into its band. Item: CC(C)C[C@H](NC(=O)[C@@H](NC(=O)/C=C/c1ccc(F)cc1)C(C)C)C(=O)N[C@H](C=O)C[C@@H]1CCCNC1=O
range B

# bin lookup: classify CC(C)C[C@H](NC(=O)/C=C/c1ccccc1)C(=O)N[C@H](C=O)C[C@@H]1CCNC1=O by its IC50
range B

Which IC50 category applies to CCC[C@H](NC(=O)/C=C/c1ccccc1)C(=O)N[C@@H](CC(C)C)C(=O)N[C@H](C=O)C[C@@H]1CCCNC1=O here?
range C

----------
# testedOn: Replicase polyprotein 1ab (Severe acute respiratory syndrome coronavirus 2)
# protocolDescription: Inhibition of SARS-CoV-2 3CL protease expressed in Escherichia coli BL21 (DE3) cells assessed as change in relative fluorescence unit using MCA-TSAVLQSGFRK(DNP)M as substrate preincubated for 30 mins followed by substrate addition and measured after 2 hrs by microplate reader based FRET assay
Assign pIC50 to each entry below.
By convention, pIC50 is the negative base-10 log of a molar concentration.

Lab note: measured pIC50 of CC(C)C[C@H](NC(=O)[C@@H](NC(=O)c1ccccc1)C(C)C)C(=O)N[C@H](C=O)C[C@@H]1CCCNC1=O was 6.59

Just so you know, measured pIC50 for O=C[C@H](C[C@@H]1CCCNC1=O)NC(=O)[C@H](CC1CC1)NC(=O)/C=C/c1ccccc1 came out at 6.53

pIC50 reading for O=C[C@H](C[C@@H]1CCNC1=O)NC(=O)[C@H](Cc1cccc(F)c1)NC(=O)c1cc2ccccc2[nH]1 : 6.07

Per the records, this compound ( CC(C)C[C@H](NC(=O)[C@@H](NC(=O)/C=C/c1ccc(N(C)C)cc1)C(C)C)C(=O)N[C@H](C=O)C[C@@H]1CCCNC1=O ) has pIC50 equal to 6.23

Notebook: CC(C)C[C@H](NC(=O)[C@@H](NC(=O)c1ccc(-c2ccccc2)cc1)C(C)C)C(=O)N[C@H](C=O)C[C@@H]1CCCNC1=O , pIC50 read as 6.39

# pIC50 of C#CC[C@H](NC(=O)/C=C/c1ccccc1)C(=O)N[C@H](C=O)C[C@@H]1CCCNC1=O = 5.48

Query CC(C)C[C@H](NC(=O)[C@H](CC1CCCCC1)NC(=O)/C=C/c1ccccc1)C(=O)N[C@H](C=O)C[C@@H]1CCCNC1=O yields pIC50 of 5.82

Hello, the source for this data is ChEMBL document CHEMBL5137031, in case you need it.
